# System: XIP peptide (Xip251-270)
# protocol summary: small-molecule binders of XIP peptide, primary screen, biochemical, small-molecule microarray, fluorescence 635/667 nm, 0.5 µg/mL protein (AID 1183)
# conditions used: small-molecule microarray binding, fluorescence 635 nm; higher = more signal
quantity measured: composite z-score

Solved entries (count: 4):
compound	composite z-score
C=CCN(C(=O)C1N(c2ccc(CCO)cc2)C(=O)C2C(C(=O)O)C3C=CC21O3)C(C)(C)C (stereo not given)	-1.52
Cc1cc(C)c(C(O)C2C=CC3C(=O)N(C)C(=O)C3N2N2CCCCC2)c(C)c1 (stereo not given)	0.849
CCOC(=O)C[C@H]1[C@H](OC(=O)Cc2ccc3c(c2)OCO3)[C@@H](NC(=O)c2ccc3ccccc3c2)c2cc(OCCCO)ccc2N1C(=O)Cc1ccc(OC)cc1	0.737
CCCC[C@@H]1C[C@H]1[C@@H](NC(=O)c1ccccc1)c1ccccc1C(F)(F)F	0.193

// returns composite z-score for C=CCC(OC(C)=O)[C@@H]1[C@@H](N(Cc2cc3ccccc3o2)C(=O)c2ccc(C)cc2)c2cc(OCCCO)ccc2N1C(=O)c1ccc2ccccc2n1 (stereo not given in full) with XIP peptide (Xip251-270); value = -0.442

----------
# protocol summary: small-molecule microarray binders of probe aCHRDL2, primary screen, biochemical, biotinylated probe, 635/667 nm fluorescence (AID 1100)
# conditions used: higher = more signal
# binarize composite z-score: threshold 0.4 inclusive, high side fulfilled, low side not fulfilled

Before answering, review these 3 worked examples.
molecule	category label
COC(=O)C1=CC(c2ccc(CO)cc2)=CC(c2cccs2)N(Cc2cccc(OC(F)(F)F)c2)C=C1C(=O)OC (configuration not stated)	fulfilled
C[C@@H]1CC[C@H]2C(=O)N3CCC[C@H]3C(=O)N2[C@H]1c1ccc(Br)cc1	not fulfilled
COc1cc2c(cc1OC)CN(C(=O)[C@@H]1[C@H]3C(=O)O[C@H](c4ccccc4)[C@H](c4ccccc4)N3[C@H](c3ccccc3OCCO)[C@@]13C(=O)Nc1ccccc13)CC2	not fulfilled

Does CN(C)CCCC[C@@H]1NC(=O)[C@@H]2C[C@H](C(=O)O)[C@H](c3ccc(O)cc3)N2C1=O have a reported composite z-score of at least 0.4?
not fulfilled

Reported composite z-score at or above 0.4? C=CCNC(=O)[C@@H]1[C@H]2C(=O)O[C@H](c3ccccc3)[C@H](c3ccccc3)N2[C@H](c2ccc(OCCO)cc2)[C@@]12C(=O)N(C(=O)OCCOC)c1ccc(C#CC3(O)CCCCCC3)cc12
not fulfilled

Does composite z-score meet or surpass 0.4 for COCCOC(=O)N1C(=O)[C@@]2(c3cc(C#CCCO)ccc31)[C@H](C(=O)N1CCCCCCC1)[C@H]1C(=O)O[C@H](c3ccccc3)[C@H](c3ccccc3)N1[C@@H]2c1ccc(O)cc1 ?
fulfilled

Dear colleague, could you confirm whether CCOC(=O)C[C@H]1[C@H](OC(=O)c2ccccc2-c2ccccc2)[C@@H](NC(=O)C2CCCCC2)c2cc(OCCCO)ccc2N1C(=O)c1ccccc1 has composite z-score at or above 0.4?
not fulfilled

----------
# protocol summary: binders of probe aFSTL3 on microarray, primary screen, stem cell growth factor project, biochemical, small-molecule microarray, fluorescence 635/667 (AID 1064);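 also: measures binding of the biotinylated anti-FSTL3 antibody to printed compounds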
# conditions used: higher = more signal
In this section we review reported composite z-score values for a set of molecules.
Reply with the value as a number alone.

These recorded examples may help you get a feel for the data.
molecule	composite z-score
COCCOC(=O)N1C(=O)[C@@]2(c3cc(C#CCNC(N)=O)ccc31)[C@H](c1ccc(OCCO)cc1)N1[C@H](c3ccccc3)[C@H](c3ccccc3)OC(=O)[C@H]1[C@@H]2C(=O)Nc1nc2ccccc2s1	1.02
CO[C@@H]1COC(=O)[C@H](C)NC(=O)CC=C[C@@H](C)[C@H](NS(=O)(=O)c2ccc(C)cc2)COC(=O)CC=C[C@@H]1C	-0.402
[N-]=[N+]=NCc1ccccc1C[C@@]1(C(=O)N2CCOCC2)N=C(c2ccc(OCCCO)cc2)O[C@@H]1c1ccccc1N=[N+]=[N-]	0.308
C[C@@H]1NC(=O)CC=C[C@@H](C)[C@@H]2C=C[C@H](O)[C@@H](COC(=O)[C@H](C)NC(=O)CC=C[C@@H](C)[C@@H]3C=C[C@H](O)[C@@H](COC1=O)O3)O2	-0.703
CO[C@H]1COC(=O)[C@H](C)NC(=O)CC=C[C@@H](C)[C@H](NS(=O)(=O)c2ccc(C)cc2)COC(=O)CC=C[C@@H]1C	-0.734
CC(=O)NCCCC[C@@H]1NC(=O)[C@@H]2C[C@H](C(=O)NCCCCCCN(C)C)[C@H](c3ccc(O)cc3)N2C1=O	-0.438
COc1ccc(CCNC(=O)[C@@]2(c3ccc([N+](=O)[O-])cc3)CC(=O)N(C(C)C)[C@@H]2c2ccc(CO)cc2)cc1	0.988
CCN1C(C)=C(C(=O)OC)[C@@H](c2ccccc2)N2C(=O)[C@@]3(C(=O)OC)O[C@@]12[C@@H]1C(=O)N(C)C(=O)[C@@H]13	-0.217

Briefly, composite z-score measured for CN1C(=O)C2C=CC(C(O)c3ccc(N(C)C)cc3)N(Nc3ccc([N+](=O)[O-])cc3[N+](=O)[O-])C2C1=O (centres undefined) : 1.56

----------
# target desc: Focal adhesion kinase 1 (Homo sapiens)
# protocol summary: small-molecule microarray binders of FAK, primary screen, biochemical, 635/667 nm fluorescence, BSA, DTT (AID 1130);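 also: composite of spot emission at 667 nm and signal to noise over triplicate slides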
# conditions used: PTK2 binding, 635 nm fluorescence, higher = more signal
quantity measured: composite z-score
Respond with the number and no other words.

Would you please look over these solved cases?
>>> print(df.to_string())
                               input_smiles                             target_desc  value_reported
0  CO[C@H]1COC(=O)[C@@H](C)NC(=O)CC=C[C@@H](C)[C@H](OC)COC(=O)CC=C[C@@H]1C  Focal adhesion kinase 1 (Homo sapiens)           0.223
1  C=C(CCCC)C(=O)CC[C@@H](OC(C)=O)c1ccccc1OCCO  Focal adhesion kinase 1 (Homo sapiens)          -0.523

// composite z-score lookup, compound = C=C(COC)/C(=C/C[C@@H](OC(C)=O)c1cccc(OCCO)c1)c1cc(C(=O)OC)ccc1OC , result: -0.453

response.value for O=C1c2ccccc2[C@@]2(Cc3ccccc3N(CC(F)(F)F)C2=O)[C@H](c2ccc(CO)cc2)N1C1CCCCC1 (field: composite z-score) = -0.103

The compound listed as CC(C)[Si](OCCCNS(=O)(=O)c1ccc(Br)cc1)(C(C)C)C(C)C shows composite z-score equal to 0.339

----------
# reported z-score; entries follow
# protocol summary: S. cerevisiae growth modulation with rapamycin, primary screen, strain BY4716, OD600, 96 h (AID 1091)
# conditions used: higher = more signal, called active from +8 up or from −8 down
Note: the reply should be a number with no unit written.

Below are worked cases with known answers.
input smiles	z-score
COc1cc2c(cc1OC)CN(C(=O)[C@H]1[C@@H]3C(=O)O[C@@H](c4ccccc4)[C@@H](c4ccccc4)N3[C@@H](c3ccc(O)cc3)[C@]13C(=O)Nc1ccc(C#CC4(O)CCCCCC4)cc13)CC2	0.695
CCCC=C(CCC)[C@@H](NC(=O)c1ccccc1)c1ccccc1	0.912
Cc1ccc(S[C@]2(C(=O)O)CC(=O)N(Cc3ccccc3)[C@@H]2c2ccc(CO)cc2)cc1	0.215
CO[C@]12C=C(Br)[C@@H](C[C@@H]1c1ccccc1)[C@@]1(CO1)C2=O	-0.208

Now for a further compound.
The compound [N-]=[N+]=NCc1ccccc1C[C@]1(C(=O)N2CCCCC2)N=C(c2ccc(OCCCO)cc2)O[C@H]1c1ccccc1CN=[N+]=[N-] showed z-score equal to 8.36

----------
# target desc: Torsin-1A-interacting protein 1 (Homo sapiens)
# protocol summary: LAP1 binders from COS7 cell lysate, primary screen, small-molecule microarray, 635/667 nm fluorescence (AID 1116)
# conditions used: COS7-hLAP1 lysate binding, 635 nm fluorescence, higher = more signal
# composite z-score values compiled below

Examples from the recorded data:
compound	composite z-score
COCCOC(=O)N1C(=O)[C@@]2(c3ccccc31)[C@H](C(=O)N1CCc3cc(OC)c(OC)cc3C1)[C@H]1C(=O)O[C@H](c3ccccc3)[C@H](c3ccccc3)N1[C@@H]2c1ccccc1OCCO	0.987
O=C1O[C@H](c2ccccc2)[C@H](c2ccccc2)N2[C@H]1[C@@H](C(=O)NC[C@H](O)c1ccccc1)[C@]1(C(=O)Nc3ccc(C#CC4=CCCCC4)cc31)[C@H]2c1ccc(OCCO)cc1	0.6
C=CC[C@]1(C(=O)O)N=C(c2ccc(OCCCO)cc2)O[C@H]1c1ccccc1N=[N+]=[N-]	1.45
COC(=O)C1=C(C)N(Cc2ccccc2)c2c(C(=O)OC)c(C(=O)OC)c(C(=O)OC)c(=O)n2[C@@H]1c1ccccc1	0.812
C=CCN1C(=O)[C@@]2(O[C@@H](CCn3cc([C@H](O)c4ccccc4)nn3)[C@H]([Si](C)(C)c3ccc(OC)cc3)[C@H]2C)c2cc(N3CCOC3=O)ccc21	0.559
O=C(N1CCCCC1)[C@@]1(CCS(=O)(=O)c2ccccc2)N=C(c2ccc(OCCCO)cc2)O[C@H]1c1ccccc1	1.77

response.value for C[N+](C)(C)CCCC[C@@H]1NC(=O)[C@H]2C[C@@H](C(=O)NCc3ccc(F)cc3)[C@@H](c3cccc(OCCO)c3)N2C1=O (field: composite z-score) = 1.42

Given item C=CCN(C(=O)C1N(c2ccc(CCO)cc2)C(=O)C2C(C(=O)O)C3C=CC21O3)C(C)(C)C (centres undefined) , the value recorded as its composite z-score is 1.71

So, CCOC(=O)C1=CCC(c2cccc3ccccc23)N(S(=O)(=O)c2ccc(C)cc2)C1 (centres undefined) ? Its composite z-score was 0.871

Lookup result for C=CCOC(=O)[C@@H]1[C@H]2C(=O)O[C@H](c3ccccc3)[C@H](c3ccccc3)N2[C@H](c2ccc(OCCOC(=O)[C@H]3C[C@H]4C(=O)N[C@@H](CCCCNC(C)=O)C(=O)N4[C@H]3c3ccc(O)cc3)cc2)[C@@]12C(=O)Nc1ccc(I)cc12 ; measured composite z-score: 0.818

Sure, the documented composite z-score for C=CC[C@@]1(C(=O)NCC(O)CO)N=C(c2ccc(OCCCO)cc2)O[C@@H]1c1ccccc1CN=[N+]=[N-] (some centres undefined) is 2.6

The compound listed as CCOC(=O)C1=CC[C@@H](c2ccccc2)N(S(=O)(=O)c2ccc(C)cc2)[C@H]1C shows composite z-score equal to 0.682

So, CC/C=C/C(=O)N(C[C@@H]1CCCO1)[C@@H]1CC(C(=O)NCCO)=C[C@H](Oc2c(I)cc(CO)cc2OC)[C@H]1O ? Its composite z-score was 0.371

In plain terms, CC(=O)NCCCC[C@@H]1NC(=O)[C@@H]2C[C@H](C(=O)NCCCCCCN(C)C)[C@H](c3ccc(O)cc3)N2C1=O has a documented composite z-score of 1.84

Consider CCCC=C(CCC)[C@@H](NC(=O)c1ccc(C(F)(F)F)cc1)c1ccccc1 . Its measured composite z-score is 0.432

Looking up CCCCCCc1nc(C2CC2)c(C)c2c1[Si](C(C)C)(C(C)C)OC2 , I found its composite z-score recorded as -0.147

Short answer for CO[C@H]1COC(=O)[C@H](CCSC)NC(=O)CC=C[C@@H](C)COC(=O)[C@@H](OCc2ccccc2)C=C[C@@H]1C : composite z-score was -0.0258

Entry O=[N+]([O-])c1ccc(C[n+]2ccc3ccc(O)cc3c2)o1 , composite z-score reported as -0.314

Note to self: composite z-score recorded for [N-]=[N+]=Nc1ccccc1C[C@@]1(C(=O)N2CCOCC2)N=C(c2ccc(OCCCO)cc2)O[C@@H]1c1ccccc1N=[N+]=[N-] was 0.842

// sample COc1cc(CO)cc(I)c1O[C@H]1C=C(C(=O)NCCO)C[C@@H](NCCc2c[nH]c3ccccc23)[C@@H]1O , its composite z-score was 0.762

// sample CCOC(=O)C[C@H]1[C@H](OC(=O)c2cc3ccccc3oc2=O)[C@@H](NC(=O)C2CCCCC2)c2cc(OCCCO)ccc2N1C(=O)c1ccc2ccccc2n1 , its composite z-score was 0.767

composite z-score for O=C1C2C=CC(C(O)c3ccccc3)N(n3cnnc3)C2C(=O)N1Cc1ccccc1 (centres undefined) is 0.327

Briefly, composite z-score measured for C=CCNC(=O)[C@@H]1[C@H]2C(=O)O[C@H](c3ccccc3)[C@H](c3ccccc3)N2[C@H](c2ccc(OCCO)cc2)[C@@]12C(=O)N(C(=O)OCCOC)c1ccc(C#CC3(O)CCCCCC3)cc12 : 1.2

composite z-score for CC(C)[Si]1(C(C)C)OCc2cc(C3CC3)nc(-c3ccccc3)c21 is -0.694
